# Tested on: RCM-1 (Colorectal Carcinoma)
# PROTOCOL TEXT: combination Emax (second highest fraction inhibited in the dose matrix, 72 h); higher = more inhibition; extreme values may be limits of the assay
Everything with combination Emax lower than 0.4 is Not met; everything else, including exactly 0.4, is Met.

Would you please look over these solved cases?
- COMPOUND: "O=C(c1cc(Cc2n[nH]c(=O)c3ccccc23)ccc1F)N1CCN(C(=O)C2CC2)CC1 [Olaparib] + CC1(C)CCC(CN2CCN(c3ccc(C(=O)NS(=O)(=O)c4ccc(NCC5CCOCC5)c([N+](=O)[O-])c4)c(Oc4cnc5[nH]ccc5c4)c3)CC2)=C(c2ccc(Cl)cc2)C1 [Venetoclax] (first compound max 10 µM, 7x7, partner max 1 µM)"
  ASSIGNED CATEGORY: "Not met"
- COMPOUND: "CC1(C)CCC(CN2CCN(c3ccc(C(=O)NS(=O)(=O)c4ccc(NCC5CCOCC5)c([N+](=O)[O-])c4)c(Oc4cnc5[nH]ccc5c4)c3)CC2)=C(c2ccc(Cl)cc2)C1 [Venetoclax] + CN(C)CCCOc1ccc(-c2ccc3ncc4c(c3c2)n(C2CCOCC2)c(=O)n4C)cn1 [AZD0156] (first compound max 1 µM, 7x7, partner max 1 µM)"
  ASSIGNED CATEGORY: "Met"
- COMPOUND: "CC1(C)CCC(CN2CCN(c3ccc(C(=O)NS(=O)(=O)c4ccc(NCC5CCOCC5)c([N+](=O)[O-])c4)c(Oc4cnc5[nH]ccc5c4)c3)CC2)=C(c2ccc(Cl)cc2)C1 [Venetoclax] + C=CCn1c(=O)c2cnc(Nc3ccc(N4CCN(C)CC4)cc3)nc2n1-c1cccc(C(C)(C)O)n1 [AZD1775] (first compound max 1 µM, partner max 1 µM)"
  ASSIGNED CATEGORY: "Met"

Ask | For this compound, is measured combination Emax 0.4 or higher? C[C@@H](c1ccc2nccn2c1)n1nnc2ncc(-c3cnn(C)c3)nc21 [Savolitinib] + CC1(C)CCC(CN2CCN(c3ccc(C(=O)NS(=O)(=O)c4ccc(NCC5CCOCC5)c([N+](=O)[O-])c4)c(Oc4cnc5[nH]ccc5c4)c3)CC2)=C(c2ccc(Cl)cc2)C1 [Venetoclax] (first compound max 1 µM, 7x7, partner max 1 µM)
Reply | Not met

Ask | For this compound, is measured combination Emax 0.4 or higher? NC1(C(=O)N[C@@H](CCO)c2ccc(Cl)cc2)CCN(c2ncnc3[nH]ccc23)CC1 [Capivasertib] + Cn1cnc2c(F)c(Nc3ccc(Br)cc3Cl)c(C(=O)NOCCO)cc21 [Selumetinib] (first compound max 10 µM, 7x7, partner max 10 µM)
Reply | Met

----------
# Test system: PSN1 (Pancreatic Carcinoma)
# PROTOCOL TEXT: combination Emax (second highest fraction inhibited in the dose matrix, 72 h); higher = more inhibition; extreme values may be limits of the assay
Listed here: items and their measured combination Emax.
Could you keep your reply to the number by itself?

Some solved entries appear below for comparison.
- COMPOUND: "COc1cccc(OCCCN)c1-c1cc(Nc2cnc(C#N)cn2)n[nH]1 [Prexasertib] + O=C(c1cc(Cc2n[nH]c(=O)c3ccccc23)ccc1F)N1CCN(C(=O)C2CC2)CC1 [Olaparib] (first compound max 1 µM, 7x7, partner max 10 µM)"
  combination Emax: 0.456
- COMPOUND: "Cc1c2c(nn1C)CSCc1cc(n(C)n1)CSc1cc(c3ccccc3c1)OCCCc1c(C(=O)O)n(C)c3c-2c(Cl)ccc13 [AZD5991] + C=CCn1c(=O)c2cnc(Nc3ccc(N4CCN(C)CC4)cc3)nc2n1-c1cccc(C(C)(C)O)n1 [AZD1775] (first compound max 1 µM, partner max 1 µM)"
  combination Emax: 0.475
- COMPOUND: "C[C@@H](c1ccc2nccn2c1)n1nnc2ncc(-c3cnn(C)c3)nc21 [Savolitinib] + CC1(C)CCC(CN2CCN(c3ccc(C(=O)NS(=O)(=O)c4ccc(NCC5CCOCC5)c([N+](=O)[O-])c4)c(Oc4cnc5[nH]ccc5c4)c3)CC2)=C(c2ccc(Cl)cc2)C1 [Venetoclax] (first compound max 1 µM, 7x7, partner max 1 µM)"
  combination Emax: 0.12

Ask | Tell me the measured combination Emax of CN(CCO)CC[C@H](CSc1ccccc1)Nc1ccc(S(=O)(=O)NC(=O)c2ccc(N3CCC([C@@H](O)c4ccccc4-c4ccc(Cl)cc4)CC3)cc2)cc1S(=O)(=O)C(F)(F)F [AZD4320] + C[C@@H]1COCCN1C2=NC(=NC(=C2)C3(CC3)[S@](=N)(=O)C)C4=C5C=CNC5=NC=C4 [AZD6738] (first compound max 1 µM, 7x7, partner max 10 µM) , please.
Reply | 0.453

Ask | Tell me the measured combination Emax of NC1(C(=O)N[C@@H](CCO)c2ccc(Cl)cc2)CCN(c2ncnc3[nH]ccc23)CC1 [Capivasertib] + CC(C)n1c(=O)n(C)c2cnc3cc(F)c(-c4ccc(OCCCN5CCCCC5)nc4)cc3c21 [AZD1390] (first compound max 10 µM, 7x7, partner max 0.3 µM) , please.
Reply | 0.256

Ask | Tell me the measured combination Emax of O=C(c1cc(Cc2n[nH]c(=O)c3ccccc23)ccc1F)N1CCN(C(=O)C2CC2)CC1 [Olaparib] + CN(CC[C@H](CSC1=CC=CC=C1)NC2=C(C=C(C=C2)S(=O)(=O)NC(=O)C3=CC=C(C=C3)N4CCC(CC4)[C@H](C5=CC=CC=C5C6=CC=C(C=C6)Cl)O)S(=O)(=O)C(F)(F)F)CCO [AZD4320] (first compound max 10 µM, 7x7, partner max 1 µM) , please.
Reply | 0.21
